Molecular target: androgen receptor (adenovirus AdEasy+rAR in COS-7 cells) (Rattus norvegicus, UniProt P15207)
Construct: expressed in transfected cells
Sequence (P15207 whole entry S389L): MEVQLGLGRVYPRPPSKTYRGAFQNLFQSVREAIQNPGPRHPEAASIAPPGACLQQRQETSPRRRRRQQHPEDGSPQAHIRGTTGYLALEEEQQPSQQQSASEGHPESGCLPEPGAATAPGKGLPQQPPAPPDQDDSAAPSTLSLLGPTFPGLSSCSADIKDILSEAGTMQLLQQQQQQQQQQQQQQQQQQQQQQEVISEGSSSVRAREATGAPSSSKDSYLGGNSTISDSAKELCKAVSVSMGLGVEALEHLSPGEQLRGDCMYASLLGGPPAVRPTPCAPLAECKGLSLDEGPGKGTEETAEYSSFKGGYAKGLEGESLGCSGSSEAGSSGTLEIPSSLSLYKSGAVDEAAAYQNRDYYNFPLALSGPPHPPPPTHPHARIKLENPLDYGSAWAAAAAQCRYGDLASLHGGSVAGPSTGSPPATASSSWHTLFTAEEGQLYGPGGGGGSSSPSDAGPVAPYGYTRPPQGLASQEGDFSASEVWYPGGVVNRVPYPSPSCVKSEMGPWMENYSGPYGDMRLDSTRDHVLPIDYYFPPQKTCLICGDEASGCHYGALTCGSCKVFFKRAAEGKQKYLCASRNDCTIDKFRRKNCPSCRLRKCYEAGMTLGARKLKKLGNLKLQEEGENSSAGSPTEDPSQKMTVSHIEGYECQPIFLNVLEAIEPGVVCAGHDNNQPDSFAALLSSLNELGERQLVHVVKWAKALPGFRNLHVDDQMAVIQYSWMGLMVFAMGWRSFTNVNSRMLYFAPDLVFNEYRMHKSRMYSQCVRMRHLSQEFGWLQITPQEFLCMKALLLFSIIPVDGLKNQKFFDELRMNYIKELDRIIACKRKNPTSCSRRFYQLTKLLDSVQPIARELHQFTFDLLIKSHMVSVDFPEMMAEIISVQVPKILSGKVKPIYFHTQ
Assay: COS-7 Whole-Cell Androgen Receptor Binding Assay, Adenovirus Transduction
Conditions: COS binding; 3000 nM unless otherwise noted
Procedure: COS-7 cells were plated in 96-well plates at 20,000 cells per well, in a solution of DMEM/F12 (GIBCO) containing 10% (v/v) charcoal-treated fetal bovine serum (Hyclone) and lacking phenol red. […] To each well was then added 50 μL of 0.5% (v/v) Triton X-100 (Sigma) in 1×PBS and the plates placed on a rotary shaker for 5 min. […] To each well was then added 0.2 mL of Microscint-20 (Packard) and the wells counted on a TopCount (Packard). […] Counts per well were measured and percents of inhibition determined. […]
Assign inhibition at 3 µM to each entry below.
# value in %; strip the unit string

So what does the record say about inhibition at 3 µM for CCSCC(C)(OC)c1cc2cc(C#N)c(C(F)(F)F)cc2n1C (stereo not shown) [compound 235] ?
78

So what does the record say about inhibition at 3 µM for COc1ccc(S(=O)(=O)CC(C)(O)c2cc3cc(Cl)c(C(F)(F)F)cc3n2S(C)(=O)=O)cc1 (stereo not shown) [compound 128] ?
21

So what does the record say about inhibition at 3 µM for CCSCC(O)(CC)c1cc2cc([N+](=O)[O-])c(C(F)(F)F)cc2[nH]1 (stereo not shown) [compound 169] ?
90

So what does the record say about inhibition at 3 µM for CCSCC(C)(O)c1cc2cc([N+](=O)[O-])cc(C(F)(F)F)c2[nH]1 (stereo not shown) [compound 212] ?
86
